Provide the recorded log10 of IC50 for the entries that follow.
test system: H3K18Ac in HB-CLS-2 cells; experiment: H3K18AC in-cell western (ICW) assay; type: cell-based; conditions: H3K18Ac in-cell western; read-out: CREBBP ICW IC50
Parameter value (number): base-10 log of IC50 in nM.

Known results for compounds:
compound="CCn1ncc(CN(C)C(=O)c2cc(-c3cc(C4=NCCN4)n(C)n3)nc3ccc(Cl)cc23)c1C [Compound 582]" assay_endpoint="log10 of IC50" measured_number=1.82
compound="CCc1noc(CN(C)C(=O)c2cc(-c3ccc(NCCNC)c(C)n3)nc3ccc(Cl)cc23)c1C [Compound 537]" assay_endpoint="log10 of IC50" measured_number=1.68
compound="CNCCNc1ccc(-c2cc(C(=O)N(C)Cc3cnc(C4CC4)n3C)c3cc(Cl)ccc3n2)nc1C [Compound 540]" assay_endpoint="log10 of IC50" measured_number=1.92
compound="CCn1ncc(CN(C)C(=O)c2nc(-c3cc(C)cc(NC4CNC(=O)C4)c3)nc3ccc(Cl)cc23)c1C (stereo not shown) [Compound 539]" assay_endpoint="log10 of IC50" measured_number=2.85
compound="CCn1ncc(CN(C)C(=O)c2nc(-c3nn(C)c(C(=O)NC)c3Cl)nc3ccc(Cl)cc23)c1C [Compound 448]" assay_endpoint="log10 of IC50" measured_number=4.16

Parameter requested: log10 of IC50. Apply to each item below.
1. CNc1[nH]nc2cc(C)c(-c3nc(C(=O)N(C)Cc4cnc(C5CC5)n4C)c4cc(COC)ccc4n3)cc12 [Compound 617]
2. CCc1ncc(CN(C)C(=O)c2cc(-c3ccc(OCC(O)CNC)c(C)n3)nc3ccc(COC)cc23)n1C (stereo not shown) [Compound 477]
3. CCn1ncc(CN(C)C(=O)c2nc(N3CCc4[nH]cnc4C3)nc3ccc(Cl)cc23)c1C [Compound 167]
4. CCn1ncc(CN(C)C(=O)c2nc(-c3cc4c(NC)noc4cc3C)nc3ccc(Cl)cc23)c1C [Compound 624]
5. CCn1ncc(CN(C)C(=O)c2nc(-c3cc(Cl)cc(NCCNC)c3)nc3ccc(Cl)cc23)c1C [Compound 14]

output:
1: 1.94; 2: 3.32; 3: 4.11; 4: 2.05; 5: 2.15
